Assign inhibition in vivo at 100 mg/kg to each entry below.
Test system: Rattus norvegicus
test_description: PCA activity of compound in rat at 100 mg/kg dose
Assay type: functional
Numbers only, in %.

Record excerpt, results attached:
The reported value for CCN(CC)CCNC(=O)c1cc(Cl)ccc1NC(=O)COc1ccc(Cl)cc1 in terms of inhibition in vivo at 100 mg/kg is 0

Note to self: inhibition in vivo at 100 mg/kg recorded for CCN(CC)CCNC(=O)c1ccc(NC(=O)COc2ccc(Cl)cc2)c(Cl)c1.O=C(O)CC(O)(CC(=O)O)C(=O)O was 14

inhibition in vivo at 100 mg/kg measured on CCN(CC)CCNC(=O)c1cc(Cl)c(NC(=O)COc2ccccc2)cc1OC = 47

Reported inhibition in vivo at 100 mg/kg ( CCOC(=O)c1cc(Cl)c(NC(=O)COc2ccc(Cl)cc2)cc1OC ) = 93

According to the records, this compound CCN(CC)CCNC(=O)c1cc(Cl)c(NC(=O)CSc2ccccc2)cc1OC displays inhibition in vivo at 100 mg/kg of 26

Consider CCN(CC)CCNC(=O)c1cc(Cl)c(NC(=O)CNc2ccccc2)cc1OC . Its measured inhibition in vivo at 100 mg/kg is 5

Briefly, inhibition in vivo at 100 mg/kg measured for CCN(CC)CCNC(=O)c1cc(NC(=O)COc2ccc(Cl)cc2)ccc1OC(C)=O : 0

Please fill in: inhibition in vivo at 100 mg/kg reported for CCN(CC)CCNC(=O)c1ccc(Cl)c(NC(=O)COc2ccc(Cl)cc2)c1 = 7

Quick note, inhibition in vivo at 100 mg/kg for CCN(CC)CCNC(=O)c1cc(Cl)c(NC(=O)COc2ccc(F)cc2)cc1OC landed at 33

Next:
Query COc1cc(NC(=O)COc2ccc(Cl)cc2)c(Cl)cc1C(=O)N1CCN(C)CC1 yields inhibition in vivo at 100 mg/kg of 0
